Tested on: microorganisms
TEST PROTOCOL: Morphology, biofilm and growth disruption by peptides (Table 5)
Type: cell-based
Design: key: A: Peptide aggregates; B: Less hyphal formation; Clumps; Diffuse clumps and small polyps; F: Diffuse growth; H: Thin; I: Growth inhibition; Microcolony formation; Rippled; Small polyps; Thick; W: Halo formation on top, microlonies on bottom
TEST SETTINGS: C. jeikeium
ENDPOINT NAME: Organism, effect

Solved cases (9 shown):
>  <SUBSTANCE>
PF-129 (MKLLARDPWVCAWNDIW; Peptide with targeting and/or antimicrobial activity)

>  <RESULT>
C. jeikeium (R)

$$$$
>  <SUBSTANCE>
LIQKGLNQTFIVVIRLNNFIKKS [PF-013]

>  <RESULT>
C. jeikeium (D)

$$$$
>  <SUBSTANCE>
PF-076 (LYQYELLSKEEYLKCTLIINQRRNEQK; Peptide with targeting and/or antimicrobial activity)

>  <RESULT>
C. jeikeium (A)

$$$$
>  <SUBSTANCE>
PF-003 (chain 1 MNNWIKVAQISVTVINEVIDIMKEKQNGGK; chain 2 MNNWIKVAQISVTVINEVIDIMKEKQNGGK; Peptide with targeting and/or antimicrobial activity)

>  <RESULT>
C. jeikeium (A)

$$$$
>  <SUBSTANCE>
PF-053 (KLFGQWGPELGSIYILPALIGSIILIAIVTLILRAMRK; Peptide with targeting and/or antimicrobial activity)

>  <RESULT>
C. jeikeium (D)

$$$$
>  <SUBSTANCE>
PF-025 (LLIIFRLWLELKWKNKK; Peptide with targeting and/or antimicrobial activity)

>  <RESULT>
C. jeikeium (A)

$$$$
>  <SUBSTANCE>
PF-010 (chain 1 MDIDVNKLLQAFVYFKSFEKLRHNNS; chain 2 MDIDVNKLLQAFVYFKSFEKLRHNNS; Peptide with targeting and/or antimicrobial activity)

>  <RESULT>
C. jeikeium (A)

$$$$
>  <SUBSTANCE>
PF-208 (DAYHCHLVRSPDAHDLSMRIGFV; Peptide with targeting and/or antimicrobial activity)

>  <RESULT>
C. jeikeium (A)

$$$$
>  <SUBSTANCE>
PF-190 (HFILRKPLLFMIHSLKTGPLDRF; Peptide with targeting and/or antimicrobial activity)

>  <RESULT>
C. jeikeium (R)

$$$$

Now take the following substance into account.
# get_value(readout='Organism, effect', item= PF-067 (DLIVKVHICFVVKTASGYCYLNKREAQAAI; Peptide with targeting and/or antimicrobial activity) ) C. jeikeium (D)
